Assay: probe aWnt5a binding to arrayed compounds – biochemical, biotinylated probe, 635/667 nm fluorescence, primary screen (AID 1113);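 also: score merges 667 nm fluorescence intensity with signal-to-noise per printed feature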
Conditions: small-molecule microarray, higher = more signal

| molecule | composite z-score |
| --- | --- |
| Cc1ccc(C2C3C(=O)CC4C(=O)N(c5ccccc5)C(=O)C4C3CN2S(=O)(=O)c2ccc(C)cc2)cc1 (stereo not given) | 0.374 |
| C[N+](C)(C)CCCC[C@@H]1NC(=O)[C@@H]2C[C@H](C(=O)NCCCCCCNC(=O)CS)[C@H](c3ccc(O)cc3)N2C1=O | -0.237 |
| COc1ccc([Si](C)(C)[C@H]2[C@H](CC(=O)N3CCC[C@H]3CO)O[C@@]3(C(=O)N(Cc4cccc(N5CCOC5=O)c4)c4ccccc43)[C@@H]2C)cc1 | -0.124 |
| CCCCCCc1nc(-c2ccc(-c3ccc(Cl)c(Cl)c3)o2)cc2c1[Si](C(C)C)(C(C)C)O[C@H]2c1ccccc1 | -0.264 |
| COc1ccc([Si](C)(C)[C@@H]2[C@@H](CCO)O[C@]3(C(=O)N(Cc4cccc(N5CCOC5=O)c4)c4ccccc43)[C@H]2C)cc1 | -0.0704 |
| [N-]=[N+]=Nc1ccccc1C[C@@]1(C(=O)N2CCCCC2)N=C(c2ccc(OCCCO)cc2)O[C@@H]1c1ccccc1N=[N+]=[N-] | 0.151 |
| CC(C)[C@@H](C(=O)O)n1cc(C2(O)CCCCC2)nn1 | -0.201 |
| COCCOC(=O)N1C(=O)[C@@]2(c3cc(C#Cc4ccc(OC)cc4)ccc31)[C@H](c1ccc(O)cc1)N1[C@H](c3ccccc3)[C@H](c3ccccc3)OC(=O)[C@H]1[C@@H]2C(=O)Nc1nc2ccccc2s1 | -0.0778 |
| COCC(=C=CC[C@H](O)c1cccc(OCCO)c1)CCO | -0.127 |
| CC1CC/C=C\[C@H]2OC34C=CCN(Cc5ccccc5)C(=O)[C@H]3N(C(C)CO)C(=O)[C@@H]4C2C(=O)O1 (stereo not given in full) | -0.148 |
| O=C1C2C=CC(C(O)COCc3ccccc3)N(Nc3ccc([N+](=O)[O-])cc3)C2C(=O)N1c1ccccc1 (stereo not given) | 0.0317 |
| [N-]=[N+]=Nc1ccccc1[C@H]1OC(c2ccc(OCCCO)cc2)=N[C@@]1(CCS(=O)(=O)c1ccccc1)C(=O)NCc1ccccc1 | 0.153 |
| O=C(CS)NCCCCCNC(=O)[C@H]1C[C@H]2C(=O)NCC(=O)N2[C@H]1c1ccc(O)cc1 | -0.256 |
| CC1CC/C=C\[C@H]2OC34C=CCN(c5ccc6ccccc6c5)C(=O)[C@H]3N(CCO)C(=O)[C@@H]4C2C(=O)O1 (stereo not given in full) | -0.205 |
| O=C1C2C=CC(C(O)c3c(F)cccc3Cl)N(Nc3ccccc3F)C2C(=O)N1c1ccccc1 (stereo not given) | 0.0136 |
| CC(C)=CCCC(C)=CC(O)C1C=CC2C(=O)N(c3ccccc3)C(=O)C2N1Nc1ccc(C(C)C)cc1 (stereo not given) | 0.163 |
| CN(C)C(=O)[C@]1(Cc2ccccc2)N=C(c2ccc(OCCCO)cc2)O[C@@H]1c1ccccc1N=[N+]=[N-] | 0.0926 |
| O=C(CS)NCCCCCNC(=O)[C@@H]1C[C@@H]2C(=O)NCC(=O)N2[C@@H]1c1cccc(OCCO)c1 | -0.16 |
| NC(=O)N1C(=O)C2C(C1=O)C1C=C(CCCO)C2C(C2CC2)N1Cc1cc2c(cc1Br)OCO2 (stereo not given) | -0.12 |
| COCCOC(=O)N1C(=O)[C@@]2(c3cc(C#CCCO)ccc31)[C@H](c1ccc(O)cc1)N1[C@H](c3ccccc3)[C@H](c3ccccc3)OC(=O)[C@H]1[C@@H]2C(=O)N1CCN(c2ncccn2)CC1 | 0.594 |
| CCCCN1CC=CC23O[C@@H]4/C=C\CCCOC(=O)C4[C@H]2C(=O)N(CCCO)[C@@H]3C1=O (stereo not given in full) | -0.124 |
| CC[C@@H]1C=C(C(=O)O)[C@H](c2cccc3ccccc23)N1S(=O)(=O)c1ccc(C)cc1 | 0.0742 |
| CCCC=C(CCC)[C@@H](NC(=O)OCC(C)C)c1ccccc1 | 0.806 |
| CC#CC(=O)Oc1ccc(Br)cc1C=CC(=O)OCC | -0.0154 |
| O=C1NC(=O)C2C1C=CC(C(O)c1ccc(I)cc1)N2Nc1ccc(Cl)cc1Cl (stereo not given) | -0.0236 |
| NC(=O)[C@@H]1[C@H]2C(=O)O[C@H](c3ccccc3)[C@H](c3ccccc3)N2[C@H](c2ccc(O)cc2)[C@@]12C(=O)Nc1ccc(C#CC3=CCCCC3)cc12 | 0.065 |
| COc1ccccc1CN1C(=O)c2ccccc2[C@@]2(Cc3ccccc3N(CCCN(C)C)C2=O)[C@@H]1c1ccc(CO)cc1 | -0.165 |
| CS(=O)(=O)CCOC(=O)C1=CC(CCCO)=CC(C2CC2)N(Cc2cc3c(cc2Br)OCO3)C=C1C(=O)OCCS(C)(=O)=O (stereo not given) | -0.0192 |
| C=CCNC(=O)[C@H]1[C@@H]2C(=O)O[C@@H](c3ccccc3)[C@@H](c3ccccc3)N2[C@@H](c2ccc(O)cc2)[C@]12C(=O)Nc1ccc(C#CCCO)cc12 | -0.124 |
| C=C(/C(=C/C[C@H](OC(=O)c1ccncc1)c1ccc(OCCO)cc1)c1cc(C(=O)OC)ccc1OC)C(C)C | -0.128 |

====

Experiment: Pseudomonas biofilm growth suppression – PAO1 strain, BacTiter-Glo luminescence, LB-PBS, primary screen (AID 1144)
Conditions: P. aeruginosa PAO1 biofilm, 12 h, higher = more signal
Active and inactive are the calls of the source. No rule for the calls is given here.
Listed here: items and their measured z-score.

| compound | z-score |
| --- | --- |
| COC(=O)[C@@]1(Cc2ccc(F)cc2)[C@H]2c3cc(C(=O)N(C)C)n(Cc4ccc(C)o4)c3C[C@H]2CN1C(=O)c1ccccc1 | -0.927 (inactive) |
| CC1CC/C=C\[C@H]2OC34C=CCN(c5ccc6ccccc6c5)C(=O)[C@H]3N(CCO)C(=O)[C@@H]4C2C(=O)O1 (stereo partly drawn) | 0.282 (inactive) |
| CO[C@H]1O[C@H](CO)[C@@H](OC(=O)Nc2ccccc2-c2ccccc2)[C@H](OC(=O)Nc2ccccc2-c2ccccc2)[C@@H]1OC(=O)Nc1ccccc1-c1ccccc1 | -0.399 (inactive) |
| CN(C)CCCCCCNC(=O)[C@@H]1C[C@@H]2C(=O)N3CCC[C@H]3C(=O)N2[C@@H]1c1ccc(O)cc1 | -0.999 (inactive) |
| COCC(=C=CC[C@@H](O)c1ccc(OCCO)cc1)C[C@@H](O)c1ccccn1 | 0.0661 (inactive) |
| CC(C)CNC(=O)[C@@]1(Cc2ccccc2I)c2ccccc2C(=O)N(Cc2ccccc2C(F)(F)F)[C@H]1c1ccc(CO)cc1 | 0.0415 (inactive) |
| COc1ccc(C#Cc2ccc3c(c2)[C@]2(C(=O)N3)[C@H](c3ccc(O)cc3)N3[C@H](c4ccccc4)[C@H](c4ccccc4)OC(=O)[C@H]3[C@@H]2C(=O)N2CCc3cc(OC)c(OC)cc3C2)cc1 | -0.0604 (inactive) |
| COC(=O)c1c(CC[C@@H](CO)NC(=O)N[C@H](Cc2ccccc2)Cn2cc(-c3ccccn3)nn2)oc(C(C)=O)c1C(=O)OC | 0.542 (inactive) |

====

Test: plasmodial surface anion channel blockers, osmotic lysis – cell-based, P. falciparum Indochina, OD700, 18 h, primary screen (AID 1157)
Settings: P. falciparum Indochina infected erythrocytes, osmotic lysis OD700, 18 h; higher = more signal, called active from +8 up or from −8 down
The class of a record is decided solely by its measured z-score; consult low group: < 0.3; middle group: ≥ 0.3 and < 0.9; high group: ≥ 0.9

| compound | cat |
| --- | --- |
| COC(=O)C[C@H]1O[C@@H](CCc2ccccc2)[C@@H](C)[C@@H]1[Si](C)(C)c1ccc(OC)cc1 | low group |
| CN(C)CCCCNC(=O)[C@@H]1C[C@@H]2C(=O)N[C@@H](CCCCN)C(=O)N2[C@@H]1c1ccc(O)cc1 | high group |
| C[N+](C)(C)CCCC[C@@H]1NC(=O)[C@@H]2C[C@H](C(=O)NCCCCCCNC(=O)CS)[C@H](c3ccc(O)cc3)N2C1=O | low group |
| C=CCN1C(=O)[C@]2(O[C@H](CCO)[C@@H]([Si](C)(C)c3ccc(OC)cc3)[C@@H]2C)c2cc(N(C=O)c3ccccc3)ccc21 | high group |
| O=C1O[C@@H](c2ccccc2)[C@@H](c2ccccc2)N2[C@@H](c3ccccc3OCCO)[C@]3(C(=O)Nc4ccc(C#CC5(O)CCCCCC5)cc43)[C@@H](C(=O)N3CCN(c4ncccn4)CC3)[C@H]12 | high group |
| C=CCNC(=O)[C@@H]1[C@H]2C(=O)O[C@H](c3ccccc3)[C@H](c3ccccc3)N2[C@H](c2ccc(OCCO)cc2)[C@@]12C(=O)N(C(=O)OCCOC)c1ccc(C#CCNC(N)=O)cc12 | middle group |
| CC(C)CN1C(=O)[C@@]2(c3ccc([N+](=O)[O-])cc3)CC(=O)N(C3CCCCC3)[C@@H]2c2ccc(CO)cc21 | middle group |
| CCOC(=O)C1=C[C@@H](C(C)C)N(S(=O)(=O)c2ccc(C)cc2)[C@H]1c1ccccc1F | middle group |
| O[C@@H](Cc1ccccc1)[C@@H](/C=C/C1CC1)NCc1cccc(Cl)c1 | middle group |
| CCCC1(C(=O)OC)C=C2C(=C(c3ccccc3)C(=O)C2C)CN1 (stereo not given) | middle group |
| CCCC=C(CCC)[C@@H](NS(=O)(=O)c1ccc(Cl)cc1)c1ccc(C(=O)OC)cc1 | low group |
| COc1ccccc1CN1C(=O)c2ccccc2[C@@]2(Cc3ccccc3N(CCCN(C)C)C2=O)[C@@H]1c1ccc(CO)cc1 | low group |
| CCCCCCCCCCC(O)C1C=CC2C(=O)NC(=O)C2N1Nc1ccc(Cl)cc1Cl (stereo not given) | high group |
| CC(=O)NCCCC[C@@H]1NC(=O)[C@H]2C[C@@H](C(=O)NCCCCCNC(=O)CS)[C@@H](c3ccc(O)cc3)N2C1=O | middle group |

Recorded values, source PubChem BioAssay.
